Recorded measurements of melting point, one per entry

NC(=NOCC1CC1)c1c(C(F)(F)F)ccc(C(F)(F)F)c1Cl
75 to 80 °C
COc1ccc(C(=O)N2C(=O)CCC2CCC(=O)OCc2ccccc2)cc1 (stereo unspecified)
80 to 83 °C
O=C(O)c1cn(C2CC2)c2c(F)c(N3CCOC(CN4CCCCC4)C3)c(F)cc2c1=O (stereo unspecified)
160 to 162 °C
Cc1ccc(S(N)(=O)=O)cc1Br
156 °C
Cc1cccc2c(=O)[nH]c(C3CCN(C)CC3)cc12
196 to 198 °C
NC(CO)(CO)CCCCCCCCCCCCCc1ccccc1
61 to 64 °C

input: Which melting point reading was recorded for the compound CN(C(=O)OC(C)(C)C)c1cc(Sc2cc(C(C)(C)C)c(O)c(C(C)(C)C)c2)ccc1N ?
output: 95 to 96 °C

input: Which melting point reading was recorded for the compound CC(=O)OCC1=C(C(=O)O)N2C(=O)C(NC(=O)Cc3ccc(CN=[N+]=[N-])cc3)C2SC1 (stereo unspecified) ?
output: 135 to 136 °C

input: Which melting point reading was recorded for the compound CCCCOc1ccc(-c2ncc(C(=O)OCC)cn2)cc1 ?
output: 99.1 °C

input: Which melting point reading was recorded for the compound O=[N+]([O-])c1cc2c(Nc3cc(Cl)c(Cl)cc3F)ncnc2cc1OCCOCCO ?
output: 149 °C

input: Which melting point reading was recorded for the compound COc1ccc(C(=O)NCC[C@@H](O)C(=O)O)cc1 ?
output: 104 °C

input: Which melting point reading was recorded for the compound ClCc1ccc(Oc2ccc3ccc(Oc4ccc(CCl)cc4)cc3c2)cc1 ?
output: 95 to 97 °C

input: Which melting point reading was recorded for the compound CC1CC2C3CCC4=CC(=O)C=CC4(C)C3(F)C(O)CC2(C)C1(O)C(=O)COC(=O)c1cccnc1 (stereo unspecified) ?
output: 262 to 265 °C

input: Which melting point reading was recorded for the compound CCOC(=O)C1CN(C(C)=O)CCC1=O (stereo unspecified) ?
output: 53 to 55 °C

input: Which melting point reading was recorded for the compound CN(C(=O)OCc1ccccc1)c1ccc([N+](=O)[O-])cc1O ?
output: 192 °C

input: Which melting point reading was recorded for the compound N#Cc1cccc2c1ccc1nc(O)c(O)nc12 ?
output: > 300 °C
